The origin of these recorded values is patent US8816085B2.

- test.system: PDE5A1 (human PDE5 from platelets) (Homo sapiens, UniProt O76074)
- Construct: from tissue; host or cells: platelets from fresh blood of human donors (10,000 g supernatant of sonified platelets)
- assay.comment: Inhibition of type 5 phosphodiesterase (PDE5) activity, modified SPA test
- Assay type: biochemical
- experimental.conditions: PDE5-containing human platelet lysate, 0.5 μM cGMP, value classes, read-out: PDE5A1 inhibitory values [measured as −logIC50 (mol/l)] (converted)
measurement.name: IC50

A selection of reference data follows.
chem_smiles=Cc1ccc(OCC2CC2)c(-c2ccnc3c(C(=O)N[C@H]4CC[C@H](NC(=O)[C@H](C)O)CC4)c(C)[nH]c23)c1 measurement_name=IC50 assay_value="1 to 10 nM"
chem_smiles=COCC(=O)N1CCC(NC(=O)c2c(C)[nH]c3c(-c4cc(OC)ccc4OCC4CC4)ccnc23)CC1 measurement_name=IC50 assay_value="1 to 10 nM"
chem_smiles=COc1ccc(OCC2CC2)c(-c2ccnc3c(C(=O)N[C@H]4CC[C@H](NC(C)=O)CC4)c(C)[nH]c23)c1 measurement_name=IC50 assay_value="< 1 nM"

Exercise: Look up IC50 of `COCC(=O)N1CCC(NC(=O)c2c(C)[nH]c3c(-c4ccc(F)cc4OCC4CC4)ccnc23)CC1` and report it.
Key: 1 to 10 nM
